Sourced from the supplement of paper PMC9112550

Test system: Escherichia coli TOP10
Experiment: shrunken log2 fold change of peptide-encoding DNA abundance (4.5 h post-induction vs induction); higher = less antimicrobial activity (less host growth inhibition)
Conditions: time post-induction: 4.5 h; library: site-saturation at positions 5, 18, 19, 20
measurement_label: shrunken log2 fold change
Output: the number by itself.

Some sequences with recorded shrunken log2 fold change:
>  <sequence>
RRIRSRPPRLPRPRPRPFMKPRP

>  <shrunken log2 fold change>
-0.205

$$$$
>  <sequence>
RRIRFRPPRLPRPRPRPDYWPRP

>  <shrunken log2 fold change>
-0.142

$$$$
>  <sequence>
RRIRMRPPRLPRPRPRPDNAPRP

>  <shrunken log2 fold change>
-0.267

$$$$
>  <sequence>
RRIRSRPPRLPRPRPRPVQGPRP

>  <shrunken log2 fold change>
0.108

$$$$
>  <sequence>
RRIRTRPPRLPRPRPRPIWQPRP

>  <shrunken log2 fold change>
0.168

$$$$

Challenge: Notebook entry, Escherichia coli TOP10 assay: shrunken log2 fold change of RRIRFRPPRLPRPRPRPRNRPRP = ?
Response given: -0.182

Challenge: GET /values?readout=shrunken log2 fold change&system=Escherichia coli TOP10&item= RRIRPRPPRLPRPRPRPTHYPRP
Response given: 0.206

Challenge: Enter reported shrunken log2 fold change observed with Escherichia coli TOP10 for RRIRKRPPRLPRPRPRPEWHPRP
Response given: 0.125

Challenge: Please provide the recorded shrunken log2 fold change for RRIRGRPPRLPRPRPRPIILPRP , tested on Escherichia coli TOP10.
Response given: 0.197

Challenge: Missing value: shrunken log2 fold change, Escherichia coli TOP10, entry RRIRGRPPRLPRPRPRPHPGPRP . Fill in?
Response given: 0.421

Challenge: # get_value(readout= shrunken log2 fold change, system= Escherichia coli TOP10) for RRIRKRPPRLPRPRPRPWTAPRP
Response given: 0.00666

Challenge: Enter reported shrunken log2 fold change observed with Escherichia coli TOP10 for RRIRFRPPRLPRPRPRPDMYPRP
Response given: -0.00804

Challenge: # returns recorded shrunken log2 fold change (system: Escherichia coli TOP10) for RRIRCRPPRLPRPRPRPPQLPRP
Response given: 0.329

Challenge: Please state recorded shrunken log2 fold change (tested on Escherichia coli TOP10) of RRIRHRPPRLPRPRPRPAHEPRP
Response given: 0.0538

Challenge: What measured shrunken log2 fold change is associated with RRIRTRPPRLPRPRPRPMCWPRP on Escherichia coli TOP10?
Response given: -0.0846

Challenge: Any idea what shrunken log2 fold change came out for RRIRIRPPRLPRPRPRPPHTPRP on Escherichia coli TOP10?
Response given: -0.055

Challenge: Give the reported shrunken log2 fold change for RRIRLRPPRLPRPRPRPQDMPRP (system: Escherichia coli TOP10).
Response given: -0.169

Challenge: Test system Escherichia coli TOP10; read-out shrunken log2 fold change; what value for RRIRIRPPRLPRPRPRPLSQPRP ?
Response given: -0.111

Challenge: // lookup shrunken log2 fold change | system=Escherichia coli TOP10 | key= RRIRRRPPRLPRPRPRPFQGPRP
Response given: -0.0527

###

System: Escherichia coli TOP10
Experiment: shrunken log2 fold change of peptide-encoding DNA abundance (4.5 h post-induction vs induction); higher = less antimicrobial activity (less host growth inhibition)
Settings: time post-induction: 4.5 h; library: site-saturation at positions 5, 18, 19, 20
Consider the following sequences and their measured shrunken log2 fold change readings.
Give the figure only, with no unit attached.

>  <sequence>
RRIRERPPRLPRPRPRPGGCPRP

>  <measurement>
1.44

$$$$
>  <sequence>
RRIRGRPPRLPRPRPRPHYEPRP

>  <measurement>
-0.21

$$$$
>  <sequence>
RRIRNRPPRLPRPRPRPMANPRP

>  <measurement>
-9.3e-05

$$$$
>  <sequence>
RRIRCRPPRLPRPRPRPATWPRP

>  <measurement>
-0.104

$$$$
>  <sequence>
RRIRSRPPRLPRPRPRPPQIPRP

>  <measurement>
0.138

$$$$
>  <sequence>
RRIRYRPPRLPRPRPRPAKIPRP

>  <measurement>
-0.0227

$$$$

Challenge: Which shrunken log2 fold change reading was recorded for the sequence RRIRSRPPRLPRPRPRPLEMPRP ?
Response given: -0.314

Challenge: Can you look up the measured shrunken log2 fold change of RRIRWRPPRLPRPRPRPNRCPRP for me?
Response given: 0.0312

Challenge: Recorded shrunken log2 fold change for RRIRWRPPRLPRPRPRPGMCPRP , please?
Response given: 0.437

Challenge: Bench note: what shrunken log2 fold change did RRIRKRPPRLPRPRPRPTQQPRP show?
Response given: 1.35

Challenge: May I ask what shrunken log2 fold change has been recorded for RRIRRRPPRLPRPRPRPWAMPRP ?
Response given: -0.136

###

System: Escherichia coli TOP10
Experiment: shrunken log2 fold change of peptide-encoding DNA abundance (4.5 h post-induction vs induction); higher = less antimicrobial activity (less host growth inhibition)
Details: time post-induction: 4.5 h; library: site-saturation at positions 5, 18, 19, 20
measurement_label: shrunken log2 fold change
Format: numeric value only, no unit, no commentary.

>  <sequence>
RRIRWRPPRLPRPRPRPPTVPRP

>  <system_under_test>
Escherichia coli TOP10

>  <shrunken log2 fold change>
0.144

$$$$
>  <sequence>
RRIRTRPPRLPRPRPRPENIPRP

>  <system_under_test>
Escherichia coli TOP10

>  <shrunken log2 fold change>
-0.0809

$$$$
>  <sequence>
RRIRPRPPRLPRPRPRPHRGPRP

>  <system_under_test>
Escherichia coli TOP10

>  <shrunken log2 fold change>
-0.0385

$$$$
>  <sequence>
RRIRIRPPRLPRPRPRPPEDPRP

>  <system_under_test>
Escherichia coli TOP10

>  <shrunken log2 fold change>
0.324

$$$$
>  <sequence>
RRIRFRPPRLPRPRPRPRLRPRP

>  <system_under_test>
Escherichia coli TOP10

>  <shrunken log2 fold change>
0.378

$$$$
>  <sequence>
RRIRFRPPRLPRPRPRPLPGPRP

>  <system_under_test>
Escherichia coli TOP10

>  <shrunken log2 fold change>
0.403

$$$$
>  <sequence>
RRIRVRPPRLPRPRPRPKNEPRP

>  <system_under_test>
Escherichia coli TOP10

>  <shrunken log2 fold change>
0.00832

$$$$
>  <sequence>
RRIRFRPPRLPRPRPRPEVWPRP

>  <system_under_test>
Escherichia coli TOP10

>  <shrunken log2 fold change>
0.273

$$$$

Okay, now this sequence:
Challenge: So what's the measured shrunken log2 fold change for this one? RRIRKRPPRLPRPRPRPDNGPRP
Response given: -0.0558

###

System: Escherichia coli TOP10
Assay: shrunken log2 fold change of peptide-encoding DNA abundance (4.5 h post-induction vs induction); higher = less antimicrobial activity (less host growth inhibition)
Details: time post-induction: 4.5 h; library: site-saturation at positions 5, 18, 19, 20
measurement_label: shrunken log2 fold change
# print the numeric value only

Known shrunken log2 fold change results, listed for orientation:
>  <sequence>
RRIRMRPPRLPRPRPRPTNFPRP

>  <shrunken log2 fold change>
-0.0912

$$$$
>  <sequence>
RRIRDRPPRLPRPRPRPSPKPRP

>  <shrunken log2 fold change>
-0.00809

$$$$
>  <sequence>
RRIRERPPRLPRPRPRPQTEPRP

>  <shrunken log2 fold change>
-0.0317

$$$$
>  <sequence>
RRIRERPPRLPRPRPRPPEHPRP

>  <shrunken log2 fold change>
0.114

$$$$

Challenge: Param item = RRIRPRPPRLPRPRPRPDQMPRP ; retrieve measured shrunken log2 fold change.
Response given: 0.196

Challenge: Requested read-out: shrunken log2 fold change. Entry: RRIRRRPPRLPRPRPRPNGNPRP
Response given: 0.0494

###

Test system: Escherichia coli TOP10;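 note: peptides expressed intracellularly from a pBAD plasmid library in pooled LB shake-flask culture, induced with 0.3% L-arabinose, DNA abundance read by NGS, three biological replicates, DESeq2 with apeglm shrinkage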
Experiment: shrunken log2 fold change of peptide-encoding DNA abundance (4.5 h post-induction vs induction); higher = less antimicrobial activity (less host growth inhibition)
Conditions: time post-induction: 4.5 h; library: site-saturation at positions 5, 18, 19, 20
Parameter: shrunken log2 fold change. Scope: all listed entries.
Answer with a number only.

Recorded shrunken log2 fold change, per entry:
>  <sequence>
RRIRCRPPRLPRPRPRPALIPRP

>  <measurement>
-0.0928

$$$$
>  <sequence>
RRIRKRPPRLPRPRPRPPRDPRP

>  <measurement>
1.01

$$$$
>  <sequence>
RRIRRRPPRLPRPRPRPHMTPRP

>  <measurement>
0.00051

$$$$
>  <sequence>
RRIRPRPPRLPRPRPRPLPSPRP

>  <measurement>
0.0677

$$$$
>  <sequence>
RRIRIRPPRLPRPRPRPSPGPRP

>  <measurement>
-0.552

$$$$

Challenge: Find the recorded shrunken log2 fold change belonging to RRIRGRPPRLPRPRPRPAEKPRP and report it.
Response given: 0.261

Challenge: Look up shrunken log2 fold change: RRIRCRPPRLPRPRPRPRELPRP
Response given: 0.506
